Measured values drawn from the supplement of paper PMC12645437 for this set.

Biological target: T1, CRBN, Q96SW2;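 further: pooled lentiviral library of zinc finger degron-EGFP fusions in mCherry-positive Jurkat cells, FACS-sorted after compound exposure, with degron abundance counted by next-generation sequencing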
T1 chain: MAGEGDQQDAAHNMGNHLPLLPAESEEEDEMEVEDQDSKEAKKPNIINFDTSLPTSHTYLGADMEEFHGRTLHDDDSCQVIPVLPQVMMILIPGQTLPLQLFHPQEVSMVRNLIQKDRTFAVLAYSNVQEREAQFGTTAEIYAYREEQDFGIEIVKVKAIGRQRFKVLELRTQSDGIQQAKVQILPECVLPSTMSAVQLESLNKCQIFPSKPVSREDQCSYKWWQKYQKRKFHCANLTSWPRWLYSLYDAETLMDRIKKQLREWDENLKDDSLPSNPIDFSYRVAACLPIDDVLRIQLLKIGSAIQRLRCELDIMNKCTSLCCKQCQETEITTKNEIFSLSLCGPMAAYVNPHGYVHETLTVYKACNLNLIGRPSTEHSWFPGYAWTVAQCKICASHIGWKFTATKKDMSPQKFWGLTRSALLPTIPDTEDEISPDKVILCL
Assay: log2 fold change of degron read counts, EGFP-low vs EGFP+ sorted cells (limma voom), compound-induced degradation; higher = more compound-induced degradation of the degron-EGFP fusion; degrons are variants of IKZF1/3 zinc finger 2; compound dose not given here
Settings: Jurkat; 18 h; compound: thalidomide
Over roughly 8,300 sequences, “log2 fold change of degron read counts, EGFP-low vs EGFP+ sorted cells (limma voom), compound-induced degradation” has its median near -1.1; the highest 2% begin near 3.2. Only a selection was taken, and the highest values are over-represented in it overall.
Reported log2 fold change of degron read counts by item:
Measurement label: log2 fold change of degron read counts

Item sequence | Reported
FRCNQCGHEFTQKGNLLRHIKL [46F_47R_49N_50Q_52G_53H_54E_55F_67L_, Q9UKT9] | -2.88
FTCEICGAQFTQKGNLLRHIKL [46F_47T_49E_50I_52G_53A_54Q_55F_67L_, Q9UKT9] | 2.92
FVCPICGAMFTQKGNLLRHIKL [46F_47V_49P_50I_52G_53A_54M_55F_67L_, Q9UKT9] | 1.85
FHCPICGAMFTQKGNLLRHIKL [46F_47H_49P_50I_52G_53A_54M_55F_67L_, Q9UKT9] | 0.306
FRCEICGAQFTQKGNLLRHIKL [46F_47R_49E_50I_52G_53A_54Q_55F_67L_, Q9UKT9] | 1.94
FSCPICGAMFTQKGNLLRHIKL [46F_47S_49P_50I_52G_53A_54M_55F_67L_, Q9UKT9] | 0.771
FTCEVCGAKFTQKGNLLRHIKL [46F_47T_49E_50V_52G_53A_54K_55F_67L_, Q9UKT9] | 2.77
FGCPICGAMFTQKGNLLRHIKL [46F_47G_49P_50I_52G_53A_54M_55F_67L_, Q9UKT9] | 0.606
LTCEICGFFCTQKGNLLRHIKL [46L_47T_49E_50I_52G_53F_54F_55C_67L_, Q9UKT9] | 0.98
FWCNICGAGFTQKGNLLRHIKL [46F_47W_49N_50I_52G_53A_54G_55F_67L_, Q9UKT9] | -0.741
FHCEICGHNFTQKGNLLRHIKL [46F_47H_49E_50I_52G_53H_54N_55F_67L_, Q9UKT9] | -3.29
FHCNQCGHMFTQKGNLLRHIKL [46F_47H_49N_50Q_52G_53H_54M_55F_67L_, Q9UKT9] | -2.2
FQCDQCGAQFTQKGNLLRHIKL [46F_47Q_49D_50Q_52G_53A_54Q_55F_67L_, Q9UKT9] | 0.414
FECDQCGAAFTQKGNLLRHIKL [46F_47E_49D_50Q_52G_53A_54A_55F_67L_, Q9UKT9] | -1.6
FWCEICGAQFTQKGNLLRHIKL [46F_47W_49E_50I_52G_53A_54Q_55F_67L_, Q9UKT9] | 2.04
